Entries and their receptor occupancy at 100 µM values follow.
# test.system: Recombinant p62 protein (Homo sapiens)
# Sequence (Q13501 whole entry, species assumed): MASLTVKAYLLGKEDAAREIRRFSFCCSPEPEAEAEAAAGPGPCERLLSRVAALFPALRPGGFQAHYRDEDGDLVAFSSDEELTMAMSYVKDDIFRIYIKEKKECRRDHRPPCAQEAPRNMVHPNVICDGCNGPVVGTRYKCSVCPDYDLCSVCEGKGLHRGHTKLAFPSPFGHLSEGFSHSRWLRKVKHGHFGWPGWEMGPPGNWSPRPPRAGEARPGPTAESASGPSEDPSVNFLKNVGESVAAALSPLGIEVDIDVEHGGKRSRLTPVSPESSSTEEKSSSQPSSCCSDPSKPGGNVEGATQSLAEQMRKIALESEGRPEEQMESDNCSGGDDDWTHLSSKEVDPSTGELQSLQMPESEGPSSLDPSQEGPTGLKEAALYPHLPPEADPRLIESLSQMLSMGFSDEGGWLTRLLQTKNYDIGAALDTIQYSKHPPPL
# test: Surface plasmon resonance (SPR) compound binding to p62
# condition.label: 15° C
readout.kind: receptor occupancy at 100 µM

                                    compound   observed
 0  CC(C)(C)OC(=O)N1Cc2ccc(Cn3ccc4c(CNCCO)cccc43)cc2C1      > 70%
 1              OCCNCc1cccc2c1ccn2CCc1cccnc1      < 30%
 2              CNCCOCc1cccc2c1ccn2Cc1ccccc1  30 to 70%
 3             OCCNCc1cccc2c1ccn2Cc1ncc[nH]1      < 30%
 4  OCCNCc1cccc2c1ccn2CC1CCCCN1 (centres unmarked)      < 30%
 5             OCCNCc1cccc2c1CN(Cc1ccccc1)C2      < 30%
 6           OCCNCc1cccc2c1ccn2Cc1ccc(Cl)cc1      > 70%
 7               OCCNCc1cccc2c1ccn2Cc1ccncc1      < 30%
 8          Cc1cn(CC2CCOCC2)c2cccc(CNCCO)c12  30 to 70%
 9               OCCNCc1ccnc2c1ccn2Cc1ccccc1      < 30%
10               OCCNCc1cccc2c1ccn2CC1CCNCC1      < 30%
11              OCCNCc1cccc2c1ccn2CCC1CCNCC1  30 to 70%
12              CC(C)NCCN1Cc2cccc(CNCCO)c2C1      < 30%
13         OCCNCc1cc(F)cc2c1ccn2Cc1ccc(F)cc1      > 70%
14               OCCNCc1cncc2c1ccn2Cc1ccccc1      < 30%
15             OCCNCc1cccc2c1ccn2Cc1ccccc1Cl  30 to 70%
16           OCCNCc1ccc(Cl)c2c1ccn2Cc1ccccc1      > 70%
17               OCCNCc1cccc2c1ccn2Cc1ccccc1  30 to 70%
18         O=C(c1ccccc1)n1ccc2c(CNCCO)cccc21      > 70%
19          Cc1cn(Cc2ccccc2)c2cccc(CNCCO)c12  30 to 70%
20               OCCNCc1cccc2c1ccn2CC1CCOCC1  30 to 70%
21         O=C(NCCO)NCc1cccc2c1ccn2Cc1ccccc1      < 30%
22     O=S(=O)(c1ccccc1)n1ccc2c(CNCCO)cccc21  30 to 70%
23  CC(C)NCC(O)COc1cccc2c1ccn2Cc1ccccc1 (centres unmarked)  30 to 70%
24          CC(C)OCCNCc1cccc2c1ccn2Cc1ccccc1      < 30%
25       Cc1cn(Cc2ccc(F)cc2)c2cccc(CNCCO)c12  30 to 70%
26             OCCNCc1ccc2c(ccn2Cc2ccccc2)c1  30 to 70%
27  CC(C)(C)OC(=O)NCCOCCOCCOCCNCc1cccc2c1ccn2Cc1ccc(F)cc1      < 30%
28        O=C(CO)NCc1cccc2c1ccn2Cc1ccc(F)cc1  30 to 70%
29  CC(O)CNCc1cccc2c1ccn2Cc1ccccc1 (centres unmarked)  30 to 70%
30             OCCNCc1ccc2ccn(Cc3ccccc3)c2c1      < 30%
31            OCCNCc1cccc2c1ccn2Cc1ccc(F)cc1      > 70%
32               OCCNCc1cccc2c1CCN2Cc1ccccc1      < 30%
33               OCCNCc1cccc2c1ccn2-c1ccccc1      > 70%
34           O=C(NCCO)c1cccc2c1ccn2Cc1ccccc1      < 30%
35           O=C(CCO)Nc1cccc2c1ccn2Cc1ccccc1      < 30%
36         COc1ccc(Cn2ccc3c(CNCCO)cccc32)cc1  30 to 70%
37  CC(=O)N1CCC(COCCNCc2cccc3c2ccn3Cc2ccccc2)CC1      < 30%

The reported numbers originate from patent US20250243160A1.
